target under test: B-Raf (V600E)-kinase (Homo sapiens, UniProt P15056, V600E)
Sequence (P15056 whole entry V600E): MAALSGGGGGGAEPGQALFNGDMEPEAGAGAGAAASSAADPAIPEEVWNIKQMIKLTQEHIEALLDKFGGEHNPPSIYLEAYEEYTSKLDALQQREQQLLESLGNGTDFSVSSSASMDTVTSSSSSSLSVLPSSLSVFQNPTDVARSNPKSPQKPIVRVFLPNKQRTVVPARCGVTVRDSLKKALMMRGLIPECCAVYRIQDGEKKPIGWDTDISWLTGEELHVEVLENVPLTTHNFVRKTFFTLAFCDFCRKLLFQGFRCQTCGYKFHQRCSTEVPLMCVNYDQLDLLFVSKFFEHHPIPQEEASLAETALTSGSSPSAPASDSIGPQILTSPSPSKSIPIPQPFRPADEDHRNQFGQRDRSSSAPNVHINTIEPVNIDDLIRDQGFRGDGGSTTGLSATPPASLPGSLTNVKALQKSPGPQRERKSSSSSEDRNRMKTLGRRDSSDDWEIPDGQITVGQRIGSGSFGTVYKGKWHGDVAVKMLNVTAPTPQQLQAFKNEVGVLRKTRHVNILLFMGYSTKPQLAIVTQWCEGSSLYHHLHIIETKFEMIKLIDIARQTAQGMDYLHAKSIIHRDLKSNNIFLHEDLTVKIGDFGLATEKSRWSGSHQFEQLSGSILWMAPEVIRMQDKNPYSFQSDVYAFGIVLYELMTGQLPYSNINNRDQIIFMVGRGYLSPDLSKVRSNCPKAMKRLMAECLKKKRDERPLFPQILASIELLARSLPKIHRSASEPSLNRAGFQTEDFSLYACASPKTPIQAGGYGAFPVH
assay text: Kinase test B-Raf (V600E)
Format: biochemical
stated conditions: compound concentration 2 μM; 100% = no inhibition, 0% = total inhibition; read-out: % CTL (residual activity of the enzyme relative to DMSO control)
Sorting guide: entries reporting remaining activity at 2 µM beneath 2% go in the T pile, the rest go in the F pile.

| compound | label |
| --- | --- |
| CCCN1CCN(c2cncc(-c3cn(-c4cc(NC(=O)c5cc(C(F)(F)F)ccn5)cnc4C)nn3)c2)CC1 [XII-41] | F |
| COCCN(C)Cc1cc(NC(=O)c2cnc(C)c(-n3cc(-c4cnn(C)c4C)nn3)c2)cc(C(F)(F)F)c1OC [Example I-96] | F |
| Cc1ncc(C(=O)Nc2cc(C(C)(C)C)on2)cc1-n1cc(-c2cncc(N3CCN(C(C)(C)C)CC3)c2)nn1 [Example I-167] | F |
| Cc1ncc(C(=O)Nc2cc(CO)c(Cl)c(C(F)(F)F)c2)cc1-n1cc(-c2cnn(C)c2C)nn1 [Example I-115] | T |
| Cc1ncc(C(=O)Nc2cc(C(F)(F)F)ccn2)cc1-n1cc(-c2cncc(N3CCN(C(C)C)CC3)c2)nn1 [Example I-152] | F |
| COCCN1CCCN(c2cncc(-c3cn(-c4cc(C(=O)Nc5cc(C(C)(C)C)on5)cnc4C)nn3)c2)CC1 [Example I-201] | T |
| Cc1ncc(NC(=O)c2cc(C(F)(F)F)ccn2)cc1-n1cc(-c2cncc(N3CCN(C)CC3)c2)nn1 [XII-57] | T |
| COCCN1CCN(c2cc(OC(F)(F)F)cc(C(=O)Nc3cnc(C)c(-n4cc(-c5cnn(C)c5C)nn4)c3)c2)CC1 [XII-24] | F |
| Cc1ncc(C(=O)Nc2cc(C(C)(C)C)on2)cc1-n1cc(-c2cncc(N3CCN(CC4CC4)CC3)c2)nn1 [Example I-137] | F |

---

target under test: B-Raf (V600E)-kinase (Homo sapiens, UniProt P15056, V600E)
assay text: Kinase test B-Raf (V600E)
Assay type: biochemical
stated conditions: compound concentration 2 μM; 100% = no inhibition, 0% = total inhibition; read-out: % CTL (residual activity of the enzyme relative to DMSO control)
quantity: remaining activity at 2 µM

| compound | target under test | measured result |
| --- | --- | --- |
| Cc1ncc(NC(=O)c2cc(OC(F)(F)F)cc(C3=CCNCC3)c2)cc1-n1cc(-c2cnn(C)c2C)nn1 [XII-30] | B-Raf (V600E)-kinase (Homo sapiens, UniProt P15056, V600E) | 1.8% |
| Cc1ncc(C(=O)Nc2cc(C(F)(F)F)ccn2)cc1-n1cc(-c2cncc(N3CCN(C)CC3)c2)nn1 [Example I-144] | B-Raf (V600E)-kinase (Homo sapiens, UniProt P15056, V600E) | 1.9% |
| COc1cncc(-c2cn(-c3cc(C(=O)Nc4cc(N5CCN(C)CC5)cc(C(F)(F)F)c4)cnc3C)nn2)c1 [Example I-24] | B-Raf (V600E)-kinase (Homo sapiens, UniProt P15056, V600E) | 1% |
| COCCCN1CCN(c2cncc(-c3cn(-c4cc(NC(=O)c5cccc(OC(F)(F)F)c5)cnc4C)nn3)c2)CC1 [XII-48] | B-Raf (V600E)-kinase (Homo sapiens, UniProt P15056, V600E) | 2.4% |
| CCN1CCN(c2cncc(-c3cn(-c4cc(NC(=O)c5cccc(OC(F)(F)F)c5)cnc4C)nn3)c2)CC1 [XII-55] | B-Raf (V600E)-kinase (Homo sapiens, UniProt P15056, V600E) | 1.8% |
| Cc1ncc(C(=O)Nc2cc(N3CCN(C)CC3)c(F)c(C(F)(F)F)c2)cc1-n1cc(-c2cnn(C)c2C)nn1 [Example I-10] | B-Raf (V600E)-kinase (Homo sapiens, UniProt P15056, V600E) | 1.1% |

---

target under test: B-Raf (V600E)-kinase (Homo sapiens, UniProt P15056, V600E)
assay text: Kinase test B-Raf (V600E)
Assay type: biochemical
stated conditions: compound concentration 2 μM; 100% = no inhibition, 0% = total inhibition; read-out: % CTL (residual activity of the enzyme relative to DMSO control)

| molecule | remaining activity at 2 µM / % |
| --- | --- |
| Cc1ncc(C(=O)Nc2cc(C(C)(C)C)on2)cc1-n1cc(-c2cncc(Br)c2)nn1 [Example I-34] | 1.5 |
| Cc1ncc(C(=O)Nc2cnn(C(C)C)c2C)cc1-n1cc(-c2cncc(N3CCN(C(C)C)CC3)c2)nn1 [Example I-151] | 4.5 |
| CCN1CCN(c2cc(NC(=O)c3cnc(C)c(-n4cc(-c5cncc(OC)c5)nn4)c3)cc(C(F)(F)F)c2C)CC1 [Example I-26] | 1.4 |
| Cc1ncc(C(=O)Nc2cc(C(C)(C)C)on2)cc1-n1cc(-c2cncc(N3CCC(N4CCN(C)CC4)CC3)c2)nn1 [Example I-205] | 0.8 |
| Cc1ncc(NC(=O)c2cc(C(F)(F)F)ccn2)cc1-n1cc(-c2cnn(C)c2C)nn1 [XII-2] | 4.6 |
| COCCCN1CCN(c2cncc(-c3cn(-c4cc(NC(=O)c5cc(C(F)(F)F)ccn5)cnc4C)nn3)c2)CC1 [XII-31] | 1.9 |
| Cc1ncc(NC(=O)c2cccc(C(C)(C)C#N)c2)cc1-n1cc(-c2cncc(N(C)CCN(C)C)c2)nn1 [XII-53] | 7 |
| Cc1ncc(C(=O)Nc2cc(CN(C)C)cc(C(F)(F)F)c2)cc1-n1cc(-c2cnn(C)c2C)nn1 [Example I-106] | 1.3 |
| Cc1ncc(C(=O)Nc2cc(C3=CCNCC3)c(C)c(C(F)(F)F)c2)cc1-n1cc(-c2cnn(C)c2C)nn1 [Example I-126] | 5.7 |
| Cc1ncc(C(=O)Nc2cc(C(C)(C)C)on2)cc1-n1cc(-c2cncc(N3CC[C@H](N(C)C)C3)c2)nn1 [Example I-145] | 2.2 |
| COCCCN1CCN(c2cncc(-c3cn(-c4cc(NC(=O)c5ccc(OC)c(C(F)(F)F)c5)cnc4C)nn3)c2)CC1 [XII-46] | 1.8 |
| Cc1ncc(C(=O)Nc2ccc(Cl)c(C(F)(F)F)c2)cc1-n1cc(-c2cncc(N3CCN(C)CC3)c2)nn1 [Example I-142] | 1.5 |
| Cc1ccc(C(F)(F)F)cc1NC(=O)c1cnc(C)c(-n2cc(-c3cnn(C)c3C)nn2)c1 [Example I-8] | 1.6 |
| Cc1cn2c(-c3cn(-c4cc(C(=O)Nc5cc(C(C)(C)C)nn5C)cnc4C)nn3)cnc2cn1 [Example I-30] | 6.9 |

---

Measured remaining activity at 2 µM, listed per entry.
target under test: B-Raf (V600E)-kinase (Homo sapiens, UniProt P15056, V600E)
assay text: Kinase test B-Raf (V600E)
Format: biochemical
stated conditions: compound concentration 2 μM; 100% = no inhibition, 0% = total inhibition; read-out: % CTL (residual activity of the enzyme relative to DMSO control)
Description: In a dilution series 10 μL of test substance solution are placed in a multiwell plate. The dilution series is selected so that generally a range of concentrations of 2 μM to 0.119 nM or 0.017 nM is covered. […] After the addition of 200 μL Enhancement Solution (Perkin Elmer, #4001-0010/#1244-105) the mixture is shaken for 10 min at RT and then measured in a Wallac Victor using the program “Delfia Time Resolved Fluorescence (Europium)”. […]
quantity: remaining activity at 2 µM

| compound | quantity | measured result |
| --- | --- | --- |
| Cc1ncc(C(=O)Nc2cc(C(F)(F)F)cc(N3CCOCC3)c2C)cc1-n1cc(-c2cnn(C)c2C)nn1 [Example I-122] | remaining activity at 2 µM | 1.8% |
| Cc1ncc(NC(=O)c2cc(C(F)(F)F)ccn2)cc1-n1cc(-c2cncc(N3CCN(C(C)C)CC3)c2)nn1 [XII-35] | remaining activity at 2 µM | 1.7% |
| CCN1CCN(c2cncc(-c3cn(-c4cc(C(=O)Nc5cc(C(C)(C)C)on5)cnc4C)nn3)c2)CC1 [Example I-134] | remaining activity at 2 µM | 2.6% |
| CC(=O)Nc1ncc(-c2cn(-c3cc(C(=O)Nc4cc(CN5CCCC5)cc(C(F)(F)F)c4)cnc3C)nn2)s1 [Example I-15] | remaining activity at 2 µM | 1.4% |
